Test system: panel of 240 cancer cell lines
Assay: Proliferation in a broad panel of 240 cancer cell lines, 2D culture (Eurofins Panlabs Oncopanel)
Assay type: cell-based
Conditions: Homo sapiens, SCC-4, SCC-4, Head and Neck; read-out: IC50
measured.endpoint: IC50

Request: Indicate the recorded IC50 value for this compound: NC1CCC(S(=O)(=O)N2C3CCC2CC(NC(=O)c2cc(C4CC4)on2)C3)CC1 (stereo not shown)
Response: > 25 µM

====

Assay: Dog pharmacokinetic study
Format: in vivo, male beagle dogs
Settings: plasma, male Beagle, PO 5 mg/kg
measured.endpoint: Tmax (h)
The figure you give is taken to be in h; do not add the unit.

Request: Indicate the recorded Tmax value for this compound: NC1CCC(S(=O)(=O)N2C3CCC2CC(NC(=O)c2cc(C4CC4)on2)C3)CC1 (stereo not shown)
Response: 1.5
